Test: Mirdametinib pharmacokinetic parameters (Table A): exposure, absorption, food effect, distribution, elimination
Type: in vivo
Conditions: human, plasma, oral; read-out: Apparent volume of distribution [Mean (% CV)]
reported metric: Vd (L)
Quick reminder: number only, in L, skip the unit.

Q: Give the measured Vd of O=C(NOC[C@H](O)CO)c1ccc(F)c(F)c1Nc1ccc(I)cc1F (single isomer, unassigned) .
Ans: 255

###

Experiment: Mirdametinib pharmacokinetic parameters (Table A): exposure, absorption, food effect, distribution, elimination
Type: in vivo
Conditions: human, plasma, oral; read-out: Apparent systemic clearance [Mean (% CV)] (converted)
reported metric: clearance
Just the number plus its unit, please.

Q: Quick one: clearance of O=C(NOC[C@H](O)CO)c1ccc(F)c(F)c1Nc1ccc(I)cc1F (single isomer, unassigned) [mirdametinib] ?
Ans: 106 mL/min

###

Test: Mirdametinib pharmacokinetic parameters (Table A): exposure, absorption, food effect, distribution, elimination
Format: in vivo
Settings: human, plasma, oral; read-out: Terminal elimination half-life [Mean (% CV)] (converted)
reported metric: half-life

Q: Which measured half-life value corresponds to O=C(NOC[C@H](O)CO)c1ccc(F)c(F)c1Nc1ccc(I)cc1F (single isomer, unassigned) ?
Ans: 28 h
